The measured values listed here are drawn from patent US20210122763A1.

# target.of.assay: recombinant human Meningioma Expressed Antigen 5 (MGEA5), also referred to as O-GlcNAcase (OGA) (Homo sapiens)
# Construct: Full length OGA enzyme was purchased at OriGene (cat #TP322411); purchased OriGene TP322411
# Sequence (O60502 whole entry): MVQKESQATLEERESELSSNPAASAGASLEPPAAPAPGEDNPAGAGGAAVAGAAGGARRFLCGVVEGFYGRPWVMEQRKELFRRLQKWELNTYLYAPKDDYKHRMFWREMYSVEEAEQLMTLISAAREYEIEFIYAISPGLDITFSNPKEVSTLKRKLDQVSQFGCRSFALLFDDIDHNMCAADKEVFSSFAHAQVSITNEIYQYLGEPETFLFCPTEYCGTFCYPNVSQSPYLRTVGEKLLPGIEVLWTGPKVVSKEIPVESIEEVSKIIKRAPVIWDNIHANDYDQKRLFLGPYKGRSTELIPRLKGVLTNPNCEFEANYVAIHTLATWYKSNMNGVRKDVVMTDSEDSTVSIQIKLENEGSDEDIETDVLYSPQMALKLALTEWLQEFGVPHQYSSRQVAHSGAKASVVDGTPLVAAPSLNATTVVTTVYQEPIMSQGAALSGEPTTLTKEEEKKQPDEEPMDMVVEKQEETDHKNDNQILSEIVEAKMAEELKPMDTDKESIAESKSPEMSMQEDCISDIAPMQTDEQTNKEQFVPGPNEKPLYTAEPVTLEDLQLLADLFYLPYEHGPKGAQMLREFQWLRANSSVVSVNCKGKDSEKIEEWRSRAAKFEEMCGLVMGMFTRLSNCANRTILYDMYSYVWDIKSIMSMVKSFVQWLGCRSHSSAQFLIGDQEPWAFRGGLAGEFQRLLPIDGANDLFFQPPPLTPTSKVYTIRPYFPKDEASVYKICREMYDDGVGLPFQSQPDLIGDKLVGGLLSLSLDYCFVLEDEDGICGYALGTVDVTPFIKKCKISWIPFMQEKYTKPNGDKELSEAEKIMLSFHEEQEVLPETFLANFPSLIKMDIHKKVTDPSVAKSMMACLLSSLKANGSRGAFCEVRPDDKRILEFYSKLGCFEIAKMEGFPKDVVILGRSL
# test.summary: OGA biochemical assay (inhibition of FM-GlcNAc hydrolysis, fluorescence)
# test.settings: read-out: Enzymatic hOGA, pIC50 (converted)
reported.metric: IC50 (nM)
Answer format: numeric, nM implied, no suffix.

Example entries begin here.
{"compound": "CC(c1ccc2c(n1)OCCO2)N1CCC(Oc2ccnc(C#N)c2)CC1 (centres unmarked) [Compound 51]", "IC50 [nM]": 63.1}
{"compound": "CC(c1ccc2c(n1)OCCO2)N1CCC(C)(Oc2ccc(F)cc2)CC1 (centres unmarked) [Compound 131]", "IC50 [nM]": 3980}

Asked: Param item = Cc1cc(OC2CCN(C(C)c3nc4nc(C)sc4cc3F)CC2)cc(C)n1 (centres unmarked) [Compound 32] ; retrieve measured IC50.
Given back: 15.8

Asked: Param item = Cc1cc(OC2CCN(C(C)c3cnc4c(c3)OCCO4)CC2)cc(C(F)(F)F)n1 (centres unmarked) [Compound 19] ; retrieve measured IC50.
Given back: 1000

Asked: Param item = Cc1cc(OC2CCN([C@H](C)c3nc4c(cc3F)CCO4)CC2)cc(C)n1 (single isomer, unassigned) [Compound 144] ; retrieve measured IC50.
Given back: 3.16

Asked: Param item = Cc1cnnc(OC2CCN(C(C)c3ccc4c(n3)OCCO4)CC2)c1 (centres unmarked) [Compound 77] ; retrieve measured IC50.
Given back: 200

Asked: Param item = Cc1cc(OC2CCN(C(C)c3ccc4c(n3)OCCO4)CC2)nc(C)n1 (single isomer, unassigned) [Compound 10] ; retrieve measured IC50.
Given back: 50.1

Asked: Param item = Cc1cc(C#N)cnc1OC1CCN(C(C)c2ccc3c(n2)OCCO3)CC1 (centres unmarked) [Compound 97] ; retrieve measured IC50.
Given back: 398
